# Tested on: DLD1
# method-summary: cell viability (CellTiter-Glo) relative to plate median (fraction of plate median); higher = more viable cells
# details: 10 µM; treatment time 24 h; reporter: 7TFP
The compounds listed here are annotated with their cell viability.
Just the number, please.

Worked examples follow.
[[record]]
compound = "CNC(=O)c1ccc(-c2cnc3ncc(Cc4ccc5ncccc5c4)n3n2)cc1F"
test_target = "DLD1"
measurement_name = "cell viability"
experimental_value = 0.987

[[record]]
compound = "COc1cc2/c(=N/c3ccc(Br)cc3F)nc[nH]c2cc1OCC1CCN(C)CC1 [Vandetanib (Zactima)]"
test_target = "DLD1"
measurement_name = "cell viability"
experimental_value = 0.921

[[record]]
compound = "Cn1cc(C2=C(c3ccc(Cl)cc3Cl)C(=O)NC2=O)c2ccccc21"
test_target = "DLD1"
measurement_name = "cell viability"
experimental_value = 1.05


# cell viability of `Cc1ccc(F)c(NC(=O)Nc2ccc(-c3cccc4[nH]nc(N)c34)cc2)c1` = 0.833

// field: cell viability; key: `O=C1NCCc2[nH]c(-c3ccncc3)cc21` ; value = 1.03

The compound listed as O=C(O)c1ccc2c(c1)nc(Nc1cccc(Cl)c1)c1ccncc12 [cx-4945 (Silmitasertib)] has a reported cell viability of 1

Data point: `CCC[C@H](NC(=O)/C(C#N)=C/c1cccc(Br)n1)c1ccccc1` ; cell viability = 0.421

Lab note: `C=CC(=O)Nc1cccc(Oc2nc(Nc3ccc(N4CCN(C)CC4)cc3)ncc2Cl)c1` gave cell viability of 0.968

response.value for C[S+]([O-])c1ccc(-c2nc(-c3ccc(F)cc3)c(-c3ccncc3)[nH]2)cc1 (centres undefined) (field: cell viability) = 0.99
